- test-target: SARS-CoV-2 spike protein on HIV-1 pseudotyped particles (SARS-CoV-2, UniProt P0DTC2 14-1254)
- protocol-text: cell-based or functional assay
Catalogue of Neutralization IC50 readings, one per entry.
property: Neutralization IC50 (mg/L)

- binder: "C044 (antibody, V domains shown) VH: EVQLVESGGGLVQPGGSLRLSCAASGFTFSSYSMNWVRQAPGKGLEWVSYISSSSSTIYYADSVKGRFTISRDNAKNSLYLQMNSLRDEDTAVYYCAREAHDGALTDYGDYLNWFDPWGQGTLVTVSS VL: SYELTQPPSVSVAPGKTARITCGGNNIGSKSVHWYQQKPGQAPVLVIYYDSDRPSGIPERFSGSNSGNTATLTISRVEAGDEADYYCQVWDSSSDHLYWVFGGGTKLTVL"
  reported-relation: ">"
  observed: 10
- binder: "C043 (antibody, V domains shown) VH: QLVQSGPEVKKPGTSVKVSCKASGFTFYNSAVQWVRQARGQRLEWVGWIVVGSGNTDYAQKFQERVTMTRDLSTNTAYMEVNSLRSEDTAVYYCAAPYCSGGTCLDGFDIWGQGTMVTVSS VL: EIVLTQSPGTLSLSPGERGTLSCRASQSVRSNYLAWYKQRPGQAPRLLVYGASSRATGIPDRFSGSGSGTDFTLTISRLEPEDFAVYYCQQYGSSPWTFGQGTKVEIK"
  reported-relation: "="
  observed: 0.0106
- binder: "C095 (antibody, V domains shown) VH: VQLVEAGGGVVQPGRSLRLSCAASGLAFSIYGMHWVRQAPGKGLEWVAIVAQDGSKKYYADSVKGRFTISRDNSKNTLYLEMNSLRTEDTAVYYCVKEGRPSDTVVVVAFDYWGQGSLVTVSS VL: DIQLTQSPSSLSASVGDRVTITCRASQSISNYLNWYQQKPGKAPKVIIYAASSLQSGVPSRFSGSGSGTDFTLTISSLQPEDFATYYCQQSHSIPRTFGQGTKVEIK"
  reported-relation: "="
  observed: 0.0113
- binder: "C097 (antibody, V domains shown) VH: QVQLQESGPGLVKPSQTLSLTCTVSGGSISSGPYYWSWIRQHPGKGLEWIGYIYYSGSTYYNPSLKSRVTISVDTSKKQFSLNLNSVTAADTAVYYCARVWQYYDSTGSFDYWGQGTLVTVSS VL: DIVMTQSPLSLPVTPGEPASISCRSSRGLLHSNGYNYLDWYLQKPGQSPQLLIYLGSNRASGVPDRFSGSGSVTDFTLNISRVEAEDVGVYYCMQALQTPFTFGPGTKVDIK"
  reported-relation: "="
  observed: 0.0096
